Test system: CCRF-CEM leukemia
Assay: NCI-60 one-dose screen, 48 h
Details: 10 µM unless noted
This is part of a sample that, as a whole, favours compounds with a hit. Of some 83,000 tested, about 20% had one in any assay. Activity calls are given as the source filed them. The calls were made as follows: active = growth percent below 10; inactive = the rest.
Outcome codes: yes for active, no for inactive

{"COMPOUND": "CN(Cc1cc(Br)cc(Br)c1O)Cc1cc(Br)cc(Br)c1O", "SYSTEM": "CCRF-CEM leukemia", "DISCRETE LABEL": "no"}
{"COMPOUND": "C=CCOC(=O)C1=C(C)N(CC)C(=O)NC1c1c(Cl)n(C)c2ccccc12 (configuration not stated)", "SYSTEM": "CCRF-CEM leukemia", "DISCRETE LABEL": "yes"}
{"COMPOUND": "O=C(O)[C@@H](Cc1ccc2ccccc2c1)NC(=O)n1c2ccccc2c2ccccc21", "SYSTEM": "CCRF-CEM leukemia", "DISCRETE LABEL": "no"}
{"COMPOUND": "COc1cc(Cl)c(C)cc1NC(=O)c1cc2ccccc2cc1O", "SYSTEM": "CCRF-CEM leukemia", "DISCRETE LABEL": "yes"}
{"COMPOUND": "O=C(Oc1ccc(CCl)cc1)c1ccccc1", "SYSTEM": "CCRF-CEM leukemia", "DISCRETE LABEL": "yes"}
{"COMPOUND": "CC1=CC(c2ccco2)=C2C(N)=NNC2N1 (configuration not stated)", "SYSTEM": "CCRF-CEM leukemia", "DISCRETE LABEL": "no"}
{"COMPOUND": "O=c1c2c3c(sc2n2c(-c4cc(-c5ccccc5)no4)nnc2n1Cc1ccccc1)CCCC3", "SYSTEM": "CCRF-CEM leukemia", "DISCRETE LABEL": "no"}
{"COMPOUND": "COc1ccc(/C=C2\\CN(C(=O)C(Cl)Cl)C/C(=C\\c3ccc(OC)cc3)C2=O)cc1", "SYSTEM": "CCRF-CEM leukemia", "DISCRETE LABEL": "yes"}
{"COMPOUND": "CCc1n(Cc2ccc3ccccc3n2)cc[n+]1Cc1ccc2ccccc2n1", "SYSTEM": "CCRF-CEM leukemia", "DISCRETE LABEL": "no"}
{"COMPOUND": "COc1cc(C(=O)c2c(-c3ccccc3)oc3c(OC)cccc23)cc(OC)c1OC", "SYSTEM": "CCRF-CEM leukemia", "DISCRETE LABEL": "no"}
{"COMPOUND": "COc1cc(/C=C/C(=O)/C=C(O)/C=C/c2ccc(OC(=O)C34CC5CC(CC(C5)C3)C4)c(OC)c2)ccc1OC(=O)C12CC3CC(CC(C3)C1)C2", "SYSTEM": "CCRF-CEM leukemia", "DISCRETE LABEL": "no"}
{"COMPOUND": "CCN1CCN(C(=O)[C@]23CC[C@@H](C)[C@H](C)[C@@H]2C2=CC[C@@H]4[C@@]5(C)C/C(=C/c6cccnc6)C(=O)C(C)(C)[C@@H]5CC[C@@]4(C)[C@]2(C)CC3)CC1", "SYSTEM": "CCRF-CEM leukemia", "DISCRETE LABEL": "yes"}
{"COMPOUND": "Cc1n[nH]c2ccc(Br)cc2c1=O", "SYSTEM": "CCRF-CEM leukemia", "DISCRETE LABEL": "no"}
{"COMPOUND": "CC1=C2[C@@H](CC1)[C@]1(C)O[C@@](C3CCCCC3)(C[C@H]1OC(=O)CO)[C@H]2OC(=O)/C=C/c1ccccc1", "SYSTEM": "CCRF-CEM leukemia", "DISCRETE LABEL": "no"}
{"COMPOUND": "Clc1ccc(-c2cc(-c3ccccc3)nc(NCCNc3ccnc4cc(Cl)ccc34)n2)cc1", "SYSTEM": "CCRF-CEM leukemia", "DISCRETE LABEL": "yes"}
{"COMPOUND": "O=C1c2ccccc2C(=O)C1c1ccc(Br)cc1", "SYSTEM": "CCRF-CEM leukemia", "DISCRETE LABEL": "no"}
{"COMPOUND": "CCOC(=O)c1cc(C(=O)c2cc(OC)c(OC)c(OC)c2)n2ccccc12", "SYSTEM": "CCRF-CEM leukemia", "DISCRETE LABEL": "no"}
